pIC50: −log10 of the molar value.
Measurement record for GluN1a/GluN2A NMDAR (Rattus norvegicus, UniProt P35439+Q00959); quantity recorded: pIC50.

Example entries begin here.
O=C(O)[C@H]1NCCN(C(=O)c2ccc(CCc3ccccc3)cc2)[C@H]1C(=O)O [Compound 21] = < 4.00
O=C(O)c1ccc2cc(C(=O)N3CCN[C@H](C(=O)O)[C@@H]3C(=O)O)ccc2c1 [Compound 19] = < 4.00

Attention now turns to another entry.
Return reported pIC50 for target or system GluN1a/GluN2A NMDAR (Rattus norvegicus, UniProt P35439+Q00959), item O=C(O)[C@H]1NCCN(C(=O)c2ccc3cc(-c4ccccc4)ccc3c2)[C@H]1C(=O)O (relative stereo) [Compound 18d] . < 4.00
